What growth inhibition was measured for each of the following?
assay.notes: C. albicans growth inhibition with fluconazole, primary screen, CaCi-2 strain, Alamar Blue fluorescence (AID 1979);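 further: all wells also contain fluconazole at 8 µg/ml as a sub-toxic cotreatment; 0% = median of DMSO wells and 100% = median of geldanamycin control wells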
conditions.used: C. albicans CaCi-2 (fluconazole-resistant clinical isolate) + fluconazole, 48 h, active compounds read high, concentration not given here
In all, about 300,000 compounds went through this assay and about 1,700 (0.57%) were called active. About 2% were inconclusive and are not listed. The sample as a whole holds a higher share of actives than the screen did.
Kindly provide the numeric value in % only, without the unit symbol.

Measured growth inhibition, O=S(=O)(NCCS(=O)(=O)N1CCN(c2ccccc2)CC1)c1ccc(F)cc1 : 0.355

# growth inhibition (molecule: Cc1ccc(CSCC(=O)N(C)CC(=O)Nc2cccc(F)c2)cc1 ) is -6.82

Per the records, this molecule ( COCCNC(=O)C1CCN(S(=O)(=O)c2ccc3c(c2)OCCO3)CC1 ) has growth inhibition equal to 0.395

Reported growth inhibition of O=C1CCCN1C(=O)COc1ccc([N+](=O)[O-])cc1 : 4.3

Form field growth inhibition, entry O=C(CSC1=NS(=O)(=O)c2cc(F)ccc2N1)Nc1ccccc1F : 5.53

Note to self: growth inhibition recorded for CCN(CC(=O)Nc1cc(Cl)ccc1C)C(=O)CSCc1ccc(C)cc1 was -5.77

The measured growth inhibition associated with COc1cccc(NC(=O)CN(C)C(=O)CSC(=S)N2CCCC2)c1 reads -3.71

Kindly note the recorded growth inhibition for O=C1c2ccccc2C(=O)c2c1cccc2N1CCN(C/C=C/c2ccccc2)CC1 , which is 8.05

get_value(item= COc1cc(/C=N/NC(=O)c2cc(-c3ccccc3C)nc3ccccc23)cc(OC)c1O , readout=growth inhibition) returns 32.7

# molecule Oc1ccc(/C=N/Nc2ccc(C(F)(F)F)cn2)cc1O ; its growth inhibition = -7.01

Lab book: growth inhibition of Cc1ccc(C(=O)Nc2c(C#N)c(C)c(C)n2Cc2ccccc2)cc1 noted as -7.7

growth inhibition reported for this molecule C[C@@H]1O[C@@H](OC[C@H]2O[C@@H](Oc3c(-c4ccc(O)cc4)oc4cc(O)cc(O)c4c3=O)[C@H](O)[C@@H](O)[C@@H]2O)[C@H](O)[C@H](O)[C@H]1O : 1.9

Summary for this molecule, CCC(C)N(C(=O)COC(=O)c1nc(Cl)ccc1Cl)C1CCS(=O)(=O)C1 (configuration not stated) : growth inhibition is -0.955

Consider Cc1nc2ccccc2nc1N/N=C/c1ccc(O)cc1O . Its measured growth inhibition is 10.5

Briefly, growth inhibition measured for CC(C)c1cc(CN2CCOCC2)cc(C(C)C)c1O : 5.31

The reported value for Cc1ccn2c(=O)c(NC(=O)c3cccc4ccccc34)c(C)nc2c1 in terms of growth inhibition is 1.1

GET /value?item= Cc1cccnc1NC(=O)Cn1c(=O)oc2ccccc21 &field=growth inhibition returns -0.441

Quick note, growth inhibition for Cc1c(C(=O)NC(C)C2CC3CCC2C3)cccc1[N+](=O)[O-] (configuration not stated) landed at -2.33

Reported growth inhibition of O=C(CCCO)N/N=C/c1cc(Br)ccc1O : -31.2

Lookup result for OCCCNc1nc(-c2ccccc2)c2cc(Cl)ccc2n1 ; measured growth inhibition: 14.2

Recorded growth inhibition (molecule CCN1C(=O)[C@H]2[C@@H](c3ccc(-c4ccc(OC)cc4)cc3)N[C@@](Cc3ccccc3)(C(=O)OC)[C@H]2C1=O ): 3.17

growth inhibition recorded for this molecule, COc1ccc(-c2cc(=O)oc3cc(OC(C)C(=O)NCC4CCC(C(=O)O)CC4)ccc23)cc1 (configuration not stated) , is -4.33

Sure, the documented growth inhibition for Oc1ccc(CN2CCN(c3ncccn3)CC2)cc1 is -5.62

For reference, reported growth inhibition for O=C(COC(=O)c1cccs1)Nc1ccccc1Cl stands at 7.55

Lab book: growth inhibition of CCOC(=O)C1=C(c2ccccc2)NC(=O)NC1c1cc(OCC)c(O)c([N+](=O)[O-])c1 (configuration not stated) noted as 38

In plain terms, Cc1ccc(/C=N/NC(=O)C2=NNC(c3ccccc3)(c3ccccc3)C2)c(O)c1 has a documented growth inhibition of 102

Documented growth inhibition of Cc1ccc(N2CC(C(=O)Nc3cc(Cl)ccc3-n3cncn3)CC2=O)cc1 (configuration not stated) : -4.63

Entry under test: O=C(NCc1ccccc1)C1=C[C@@H](c2ccccc2)C[C@@H](OCCCCO)O1 . Its growth inhibition was -5.03

Per the record, CCOc1ccc(-c2cc(C(=O)N/N=C/c3ccc(O)cc3)c3ccccc3n2)cc1 has growth inhibition of 10.7

Note to self: growth inhibition recorded for O=C(Nc1cc(Cl)ccc1N1CCOCC1)c1ccc(N2CCCC2=O)cc1 was 4

Record Oc1c(C(c2ccccn2)N2CCOCC2)ccc2cccnc12 (configuration not stated) , field growth inhibition: 85.8

Lookup result for C[C@@H]1C[C@@H]2O[C@H]2/C=C\C=C\C(=O)Cc2c(Cl)c(O)cc(O)c2C(=O)O1 ; measured growth inhibition: 84.1

For reference, reported growth inhibition for CCc1ccccc1NC(=O)c1cc(-c2ccc3c(c2)OCO3)on1 stands at -0.103

Per the records, this molecule ( Cc1ccc(OCCC(=O)OCC(=O)N2c3ccccc3NC(=O)C2(C)C)cc1 ) has growth inhibition equal to -5.48

Summary for this molecule, CC(=O)c1cnc(SCCN2C(=O)c3ccccc3C2=O)nc1C : growth inhibition is -3.43

# growth inhibition of Cc1cccnc1NC(=O)c1cccc(S(=O)(=O)N2CCN(c3ccc(F)cc3)CC2)c1 = -15.4

The molecule COc1ccccc1C(=O)NC(=O)COC(=O)c1ccco1 showed growth inhibition equal to 8.59

Recorded result, C#CCOCCOCCOCCNc1nc(N2CCN(C(=O)C([C@@H](C)CC)n3cc(C(N)COC(=O)C(F)(F)F)nn3)CC2)nc(N2CCN(C(=O)[C@H](CCCCN)n3cc(C(N)CC(C)C)nn3)CC2)n1 (some centres not stated) , growth inhibition: 4.02

Recorded result, CCOc1ccc(NC(=O)COc2ccc(C(=O)N3CCC(C(N)=O)CC3)cc2OC)cc1 , growth inhibition: -4.97

Data point: COc1ccc(/C=N/Nc2ncnc3sc4c(c23)CCCC4)cc1O ; growth inhibition = 18.5

Briefly, growth inhibition measured for O=C(OCCN1C(=O)c2ccccc2C1=O)Oc1ccccc1 : 4.11

The reported growth inhibition of the molecule Oc1ccc(Br)cc1/C=N/Nc1ccccn1 was 106
